Test: amyloid nucleation score (Sup35N fusion, yeast selection) (log enrichment); library NNK2; higher = more nucleation; inactive = no reads after selection;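 also: zero at mode of non-aggregating sequences after 7 days selection at 30°C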
Classify as follows. Reported amyloid nucleation score greater than or equal to 0.5: 1. Reported amyloid nucleation score below: 0.

- SEQUENCE_CONTENT: "TFFYMRFPGFLFSNSSNAW"
  ANSWER_LABEL: 1
- SEQUENCE_CONTENT: "YSVGCCLRYYRSN"
  ANSWER_LABEL: 1
- SEQUENCE_CONTENT: "SRCGLLMVSPNAVPSGLAHR"
  ANSWER_LABEL: 1
- SEQUENCE_CONTENT: "DSLLKVLRRIWCLYVGGNLI"
  ANSWER_LABEL: 0
- SEQUENCE_CONTENT: "GLKMLFNVNLQDM"
  ANSWER_LABEL: 0
- SEQUENCE_CONTENT: "GGLPGRVVEATCWYPVINVR"
  ANSWER_LABEL: 1
- SEQUENCE_CONTENT: "WTNFVGLSALFSMWV"
  ANSWER_LABEL: 0
- SEQUENCE_CONTENT: "TPVSCFTCRQCLVTGLHTLR"
  ANSWER_LABEL: 0
- SEQUENCE_CONTENT: "SKRDGVSSMIM"
  ANSWER_LABEL: 1
- SEQUENCE_CONTENT: "YRLRMIFSMGMNNYVARWFH"
  ANSWER_LABEL: 0
- SEQUENCE_CONTENT: "VHLTGSCHPNYSGVGKCMVI"
  ANSWER_LABEL: 0
- SEQUENCE_CONTENT: "FCFLKFCMLHRLLVFLWRQF"
  ANSWER_LABEL: 1
- SEQUENCE_CONTENT: "IWHFYIACLGVSNESISGFG"
  ANSWER_LABEL: 1
- SEQUENCE_CONTENT: "WAKSFHTALWASLMRGRKLH"
  ANSWER_LABEL: 0
- SEQUENCE_CONTENT: "LSLLSFGISASFVV"
  ANSWER_LABEL: 0
- SEQUENCE_CONTENT: "YRCLYGRKYVFRIEPIGIVH"
  ANSWER_LABEL: 0
- SEQUENCE_CONTENT: "MVHLRGIDVMSILDSYCESG"
  ANSWER_LABEL: 1

====

Experiment: amyloid nucleation score (Sup35N fusion, yeast selection) (log enrichment); library NNK2; higher = more nucleation; inactive = no reads after selection
Reported values of amyloid nucleation score for individual entries

- SUBSTANCE: "SAIRLMGG"
  amyloid nucleation score: 5.38
- SUBSTANCE: "FMTLAGFSGAVEASGADWRR"
  amyloid nucleation score: -0.606
- SUBSTANCE: "KVRGPSNNVSSQKAHDRFDS"
  amyloid nucleation score: 0.277
- SUBSTANCE: "MYVDLWFGTYRNS"
  amyloid nucleation score: 0.532
- SUBSTANCE: "WTLYKTMIMVSSVPFIIKIC"
  amyloid nucleation score: -1.2
- SUBSTANCE: "GPLFPNFKSLGGEYRRH"
  amyloid nucleation score: 0.325
- SUBSTANCE: "GVKFQAAEAGPPGTYGTLGS"
  amyloid nucleation score: -0.031
- SUBSTANCE: "TEGRVDPLCDERAILMVFDV"
  amyloid nucleation score: 0.768
- SUBSTANCE: "VLRHLD"
  amyloid nucleation score: 0.44
- SUBSTANCE: "TRSYQLLLVSLVAGNFVE"
  amyloid nucleation score: 1.5
- SUBSTANCE: "PCGLIV"
  amyloid nucleation score: 0.22
- SUBSTANCE: "ALRYVMRLY"
  amyloid nucleation score: 2.53
- SUBSTANCE: "LVDLWSRRGCKKLVRYVESL"
  amyloid nucleation score: 0.818
- SUBSTANCE: "FNALTVDQTVHSYGVYADLP"
  amyloid nucleation score: 0.191
- SUBSTANCE: "TEDDCGK"
  amyloid nucleation score: 0.975
- SUBSTANCE: "SILCLLNRLTFREYLMVFID"
  amyloid nucleation score: -0.583
- SUBSTANCE: "CFVSNRDYDF"
  amyloid nucleation score: 0.773

====

Assay: amyloid nucleation score (Sup35N fusion, yeast selection) (log enrichment); library NNK1; higher = more nucleation; inactive = no reads after selection
MEASURE: amyloid nucleation score

- SUBSTANCE: "PGARSLLGSYYV"
  OBSERVED_VALUE: 0.058
- SUBSTANCE: "GSNTFI"
  OBSERVED_VALUE: 0.243
- SUBSTANCE: "LSMSTFVKVCDVNAYPKGTA"
  OBSERVED_VALUE: 0.358
- SUBSTANCE: "CPVGQTNCQDL"
  OBSERVED_VALUE: 0.072
- SUBSTANCE: "IGVYSKNAQKGIRRDWCLWN"
  OBSERVED_VALUE: 1.33
- SUBSTANCE: "LKMFSRPCVMIKNRTGVR"
  OBSERVED_VALUE: 0.452
- SUBSTANCE: "LYEAMPKTLAGIWSTPNMCV"
  OBSERVED_VALUE: -0.507
- SUBSTANCE: "NSDKLPRCHLSLSYV"
  OBSERVED_VALUE: 0.994
- SUBSTANCE: "GVDKEINLFMYRPYRFVSGE"
  OBSERVED_VALUE: 1.1
- SUBSTANCE: "YPGGILIRRVNIKLDGAAIV"
  OBSERVED_VALUE: -0.869
- SUBSTANCE: "RFFISYTFSWPRYLVGKDLL"
  OBSERVED_VALUE: -0.936
- SUBSTANCE: "VVVCSNLMYLNCNWAATNNL"
  OBSERVED_VALUE: 7.16
- SUBSTANCE: "ARTMKDYPLRTYVYYAPAGY"
  OBSERVED_VALUE: 0.453
- SUBSTANCE: "VRRDQDRPFSTMRQGLRFGH"
  OBSERVED_VALUE: 0.248
- SUBSTANCE: "VMVFGSMPVDDLLHFWLECY"
  OBSERVED_VALUE: -0.102
- SUBSTANCE: "RDVCLQSGMVVFYF"
  OBSERVED_VALUE: 6.91
- SUBSTANCE: "SRVFLCCAMCLRRNSGYGR"
  OBSERVED_VALUE: -0.362
- SUBSTANCE: "TWPVLSDGQAGELRVRMGSA"
  OBSERVED_VALUE: 0.741
- SUBSTANCE: "NPLHTMFTLYEIRQWRLF"
  OBSERVED_VALUE: -0.048
- SUBSTANCE: "CPWRNRII"
  OBSERVED_VALUE: 0.684
- SUBSTANCE: "LCLSCLWMGETRPRSNPVNL"
  OBSERVED_VALUE: 6.24
- SUBSTANCE: "VLTLSTKLCLHRGGWTTKPT"
  OBSERVED_VALUE: 4.2
- SUBSTANCE: "NLHFVGTCHTFSSAYNRRET"
  OBSERVED_VALUE: -0.95
- SUBSTANCE: "ASPVLFKWICPIYTS"
  OBSERVED_VALUE: 2.87
- SUBSTANCE: "WVVISMSVRHVLACNLLPIR"
  OBSERVED_VALUE: -0.013
- SUBSTANCE: "IDHSNTIFMSQCRRLSVPE"
  OBSERVED_VALUE: -0.889
- SUBSTANCE: "TGDLVTLGGVGL"
  OBSERVED_VALUE: 0.309
- SUBSTANCE: "NMIESIVDISTPFIHGMIND"
  OBSERVED_VALUE: 0.295
- SUBSTANCE: "SRFMGTNN"
  OBSERVED_VALUE: 0.102
- SUBSTANCE: "ILCLKTDGLGDESRGVSEAG"
  OBSERVED_VALUE: 0.27
- SUBSTANCE: "FKSVGLTWALRGRINKTYLE"
  OBSERVED_VALUE: 0.195
- SUBSTANCE: "FFKLKHGNTDRSYIYYVGCA"
  OBSERVED_VALUE: -0.01
- SUBSTANCE: "FCCGSGNSMDMCWFLSIG"
  OBSERVED_VALUE: 6.93
- SUBSTANCE: "LQFNMVYVCYGWSSVYARSG"
  OBSERVED_VALUE: 0.409
- SUBSTANCE: "TYTCVNPVGHFTGGNRGILW"
  OBSERVED_VALUE: 0.425
- SUBSTANCE: "DRGDLAFSFSGQRTGGKEPR"
  OBSERVED_VALUE: -0.219
- SUBSTANCE: "WVIVRYRNFCVCGRPSKDIG"
  OBSERVED_VALUE: 0.263
- SUBSTANCE: "VNASELEYKFTLLVQWMIRR"
  OBSERVED_VALUE: 1.31
- SUBSTANCE: "KRARGDFYILEWQSDLDNLG"
  OBSERVED_VALUE: -0.755
- SUBSTANCE: "FVLWIY"
  OBSERVED_VALUE: 0.14
- SUBSTANCE: "VLSPFTVKIDIKSKISVLGP"
  OBSERVED_VALUE: 4.11
- SUBSTANCE: "LLATCVRVECY"
  OBSERVED_VALUE: 1.58
- SUBSTANCE: "CGRVDEFKALLYKILRDYNW"
  OBSERVED_VALUE: -0.141
- SUBSTANCE: "ETPNAFHVHMSYVYRLRWSR"
  OBSERVED_VALUE: 2.75
- SUBSTANCE: "QFFLNTRLSLFALYL"
  OBSERVED_VALUE: 5.35
- SUBSTANCE: "IRVTAEICYLLKHTVMGRMR"
  OBSERVED_VALUE: 0.523
- SUBSTANCE: "LLLYDPREC"
  OBSERVED_VALUE: -1.46
- SUBSTANCE: "KIRVYSRCCFLSG"
  OBSERVED_VALUE: 5.63
- SUBSTANCE: "YRNEESVSKSHGCHDMSWFA"
  OBSERVED_VALUE: 0.505
- SUBSTANCE: "LWSLVCSELCWDVLFNALPG"
  OBSERVED_VALUE: -1.03
- SUBSTANCE: "TFGSETESMLNTKYSSGCVG"
  OBSERVED_VALUE: 0.067
- SUBSTANCE: "YRGYDKREYCSHFFTWDTYG"
  OBSERVED_VALUE: 0.821
- SUBSTANCE: "QPSKCGAWGPLFIAGVGLTQ"
  OBSERVED_VALUE: 0.231
- SUBSTANCE: "RSFCRSSVIFVFP"
  OBSERVED_VALUE: 2.79
- SUBSTANCE: "NPKSFNGCVFRLGGVPYFVS"
  OBSERVED_VALUE: 0.076
- SUBSTANCE: "SIVRTDDIARLSLMLGRRSV"
  OBSERVED_VALUE: -0.724
- SUBSTANCE: "PFFWFH"
  OBSERVED_VALUE: -0.482
- SUBSTANCE: "ITKGAPSLYYMCRRGEDACS"
  OBSERVED_VALUE: 0.523
- SUBSTANCE: "ILELYYYASRFLN"
  OBSERVED_VALUE: 0.45
- SUBSTANCE: "REWSSYRIVRWYEMCYISTS"
  OBSERVED_VALUE: -0.158
- SUBSTANCE: "SVRVPEHGRRWVSKGVG"
  OBSERVED_VALUE: -0.785
- SUBSTANCE: "IFNSNLLLTATRGDSVIWPY"
  OBSERVED_VALUE: 3.26
- SUBSTANCE: "VHLTSPYHCRVPDMNSCYGS"
  OBSERVED_VALUE: 0.371
- SUBSTANCE: "VLSPKSNIGDMSLIFMNTAA"
  OBSERVED_VALUE: 0.54
- SUBSTANCE: "RSMSTIRIEGSESTSFISS"
  OBSERVED_VALUE: -0.812
- SUBSTANCE: "SKMDGVATRYRYNAMRADVK"
  OBSERVED_VALUE: 0.181
- SUBSTANCE: "PDSFCFTMHLRKDEMMTSCK"
  OBSERVED_VALUE: -0.053
- SUBSTANCE: "VVISIYGMYRSFTPQLWFKA"
  OBSERVED_VALUE: -0.603
